Ref: patent US5006570A

- assay-comment: Acute toxicity in mice (LD50, Bliss' method)
- test-parameters: mouse, in vivo, sc, read-out: Lethal doses50 s.c.
Please go through the items and note down their LD50.

Q: What LD50 value was documented for this compound, CCN1CCCC1CNC(=O)c1cccc2c1OCCC2.O=C(O)/C=C/C(=O)O (stereo not drawn) ?
Ans: 263 to 282 mg/kg

Q: What LD50 value was documented for this compound, CCS(=O)(=O)c1cc(C(=O)NCC2CCCN2CC2CC2)c2c(c1C)CCCO2 (stereo not drawn) ?
Ans: 389 to 402 mg/kg

Q: What LD50 value was documented for this compound, CCS(=O)(=O)c1cc2c(c(C(=O)NCC3CCCN3CC3CC3)c1)OC(C)C2.Cl (stereo not drawn) ?
Ans: 440 to 462 mg/kg

Q: What LD50 value was documented for this compound, CCN1CCCC1CNC(=O)c1cc(S(=O)(=O)CC2CC2)cc2c1OC(C)C2 (stereo not drawn) ?
Ans: 376 to 390 mg/kg

Q: What LD50 value was documented for this compound, CNS(=O)(=O)c1cc2c(c(C(=O)NCC3CCCN3CC3=CCCCC3)c1)OC(C)C2 (stereo not drawn) ?
Ans: 316 to 318 mg/kg

Q: What LD50 value was documented for this compound, CCN1CCCC1CNC(=O)c1cc(S(=O)(=O)CC)c(C)c2c1OCCC2 (stereo not drawn) ?
Ans: 351 to 375 mg/kg

Q: What LD50 value was documented for this compound, CNS(=O)(=O)c1cc2c(c(C(=O)NCC3CCCN3CC3=CCCCC3)c1)OCCC2 (stereo not drawn) ?
Ans: 406 to 408 mg/kg

Q: What LD50 value was documented for this compound, O=C(NCC1CCCN1CC1=CCCCC1)c1cc(Cl)cc2c1OCC2 (stereo not drawn) ?
Ans: 412 to 434 mg/kg

Q: What LD50 value was documented for this compound, CCN(CC)CCNC(=O)c1cc(Cl)c(N)c2c1OC(C)C2 (stereo not drawn) ?
Ans: 88.4 to 93.1 mg/kg

====

Please go through the items and note down their LD50.
- assay-comment: Acute toxicity in mice (LD50, Bliss' method)
- test-parameters: mouse, in vivo, sc, read-out: Lethal doses50 s.c.
- Description: Acute toxicity was studied in mice, the compounds being administered intravenously, subcutaneously, intraperitoneally and orally. The doses causing the death of 50% of the animals (LD50) were determined by Bliss' method, giving the following results: […]

Q: What LD50 value was documented for this compound, CCN1CCCC1CNC(=O)c1cc(S(=O)(=O)CC2CC2)cc2c1OCCC2 (stereo not shown) [Ex 4] ?
Ans: 375 to 382 mg/kg

Q: What LD50 value was documented for this compound, CNS(=O)(=O)c1cc(C(=O)NCC2CCCN2CC2CC2)c2c(c1N)CCCO2.Cl (stereo not shown) [Ex 16] ?
Ans: 330 to 382 mg/kg

Q: What LD50 value was documented for this compound, CCS(=O)(=O)c1cc(C(=O)NCC2CCCN2CC2CC2)c2c(c1N)CCCO2 (stereo not shown) [Ex 8] ?
Ans: 239 to 251 mg/kg

Q: What LD50 value was documented for this compound, C=CCN1CCCC1CNC(=O)c1cc(S(=O)(=O)CC2CC2)cc2c1OCCC2 (stereo not shown) [Ex 5] ?
Ans: 385 to 412 mg/kg

Q: What LD50 value was documented for this compound, O=C(NCC1CCCN1CC1CC1)c1cc(S(=O)(=O)CC2CC2)cc2c1OCCC2 (stereo not shown) [Ex 6] ?
Ans: 291 to 312 mg/kg

Q: What LD50 value was documented for this compound, CCS(=O)(=O)c1cc2c(c(C(=O)NCC3CCCN3CC3=CCCCC3)c1)OCCC2 (stereo not shown) [Ex 11] ?
Ans: 141 to 145 mg/kg

Q: What LD50 value was documented for this compound, CC1Cc2cc(S(=O)(=O)CC3CC3)cc(C(=O)NCC3CCCN3CC3=CCCCC3)c2O1.CS(=O)(=O)O (stereo not shown) [Ex 3] ?
Ans: 250 mg/kg

Q: What LD50 value was documented for this compound, CCN1CCCC1CNC(=O)c1cc(S(=O)(=O)CC)c(OC)c2c1OC(C)C2.Cl (stereo not shown) [Ex 17] ?
Ans: 280 to 282 mg/kg

Q: What LD50 value was documented for this compound, CC1Cc2cc(Cl)cc(C(=O)NCC3CCCN3CC3=CCCCC3)c2O1 (stereo not shown) [Ex 15] ?
Ans: 1410 mg/kg

Q: What LD50 value was documented for this compound, CCS(=O)(=O)c1cc2c(c(C(=O)NCC3CCCN3CC3CC3)c1)OCCC2.Cl (stereo not shown) [Ex 7] ?
Ans: 415 to 435 mg/kg
